Target: T1, recombinant hMCAM-His (human, UniProt P43121 24-559)
T1 construct: not shown: His tag
T1 chain: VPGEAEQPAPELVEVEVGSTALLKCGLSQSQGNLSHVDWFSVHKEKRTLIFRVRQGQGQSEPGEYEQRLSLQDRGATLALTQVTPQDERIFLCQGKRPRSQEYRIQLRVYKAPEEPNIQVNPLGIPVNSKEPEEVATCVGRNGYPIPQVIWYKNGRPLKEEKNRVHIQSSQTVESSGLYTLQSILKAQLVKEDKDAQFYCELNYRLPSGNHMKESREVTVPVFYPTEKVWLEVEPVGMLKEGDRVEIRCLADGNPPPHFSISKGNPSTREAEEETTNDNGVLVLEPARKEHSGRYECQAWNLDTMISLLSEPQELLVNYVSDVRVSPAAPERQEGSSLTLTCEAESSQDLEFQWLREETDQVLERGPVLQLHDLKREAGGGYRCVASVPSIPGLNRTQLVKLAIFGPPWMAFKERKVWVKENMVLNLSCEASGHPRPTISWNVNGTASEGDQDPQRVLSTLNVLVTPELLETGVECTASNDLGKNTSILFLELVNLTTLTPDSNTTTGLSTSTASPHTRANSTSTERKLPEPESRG
Assay: competitive ELISA on hMCAM-His, competitor biotinylated rodent or chimeric 2107; Expt. #2; vs rodent 2107
Endpoint label: fold over rodent (competitive ELISA)
Give the figure together with its unit, number first.

Task: Recorded fold over rodent (competitive ELISA) of h2107_VH2 + h2107_VL2 (antibody, human IgG1, V domains shown, also called h2107VH2VL2; VH2VL2) VH: QVTLKESGPVLVKPTETLTLTCTVSGFSLTSNGVSWVRQPPGKALEWIAAISSGGSTYYNSAFKSRLSISRDTSKSQVVLTMTNMDPVDTATYYCARHRPFYFDYWGQGTLVTVSS VL: DIQMTQSPSSLSASVGDRVTITCKGSQNIYKSLAWFQLKPGKVPKLLIYDANSLQTGIPSRFSGSGSGTDFTLTISSLQPEDVATYYCQQYYSGYTFGGGTKVEIK , please.
Result: 1.48 fold

Where these numbers come from: patent US20150239980A1
